Where do these numbers come from? They come from patent US9090593B2.

Molecular target: Pim-2 stably transfected into the U2OS human osteogenic sarcoma line (Homo sapiens, UniProt Q9P1W9)
Construct: expressed in transfected cells; host or cells: U2OS human osteogenic sarcoma line
Sequence (Q9P1W9 whole entry): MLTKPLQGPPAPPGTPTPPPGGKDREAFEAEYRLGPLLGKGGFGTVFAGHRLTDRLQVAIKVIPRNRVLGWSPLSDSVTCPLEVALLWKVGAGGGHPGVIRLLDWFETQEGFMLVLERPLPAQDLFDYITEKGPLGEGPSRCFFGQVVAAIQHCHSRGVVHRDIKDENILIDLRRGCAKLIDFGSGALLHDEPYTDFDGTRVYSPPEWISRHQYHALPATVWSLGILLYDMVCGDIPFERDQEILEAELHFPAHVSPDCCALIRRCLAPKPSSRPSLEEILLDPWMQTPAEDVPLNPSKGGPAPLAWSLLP
Assay: Pim cell assay, phospho-BAD normalized against total BAD, U2OS stably transfected with Pim-2
Type: cell-based
Conditions: U2OS stably transfected with Pim-2; phospho-BAD normalized against total BAD; 29 min incubation; read-out: Pim2_Cell_IC50_
Where a name gives a salt, the structure may show the parent alone.
The following compounds are listed with their measured IC50 values.
Recorded Endpoint: IC50

1. CC(C)Oc1nc(-c2n[nH]c3ccc(-c4c(F)cccc4F)cc23)cc(=O)[nH]1 | > 15.8 µM
2. Nc1cncc(-c2ccc3[nH]nc(-c4cncc(OCCF)n4)c3c2)n1 | > 31.6 µM
3. c1cc(-c2ccc3[nH]cc(-c4cncc(O[C@@H]5CCCNC5)n4)c3c2)nc(N2CCNCC2)c1 | > 31.6 µM
4. NC1CCN(c2cc(O)nc(-c3c[nH]c4ccc(-c5c(F)cccc5F)cc34)n2)CC1 | > 31.6 µM
5. NC1CCN(c2cc(O)nc(-c3n[nH]c4ccc(-c5c(F)cccc5F)cc34)n2)CC1 | > 31.6 µM
6. c1cc2c(cc1-c1ccc3[nH]cc(-c4cncc(O[C@@H]5CCCNC5)n4)c3c1)OCO2 | > 15.8 µM
7. CC(C)Oc1cccc(-c2ccc3[nH]cc(-c4cncc(O[C@@H]5CCCNC5)n4)c3c2)c1 | > 15.8 µM
8. COc1cc(-c2ccc3[nH]cc(-c4cncc(O[C@@H]5CCCNC5)n4)c3c2)c(F)cn1 | 6.53 µM
9. CC(C)OC(=O)c1ccc2[nH]nc(-c3cncc(O[C@@H]4CCCNC4)n3)c2c1 | 20.3 µM
10. CC(C)Nc1nc(-c2c[nH]c3ccc(-c4cncc(C5CC5)n4)cc23)cc(=O)[nH]1 | > 31.6 µM
11. C1=C(c2ccc3[nH]nc(-c4cncc(O[C@H]5CNCCC56CC6)n4)c3c2)CCOC1 [Example 263, 2,2,2-trifluoroacetate salt] | 5.76 µM
12. COc1ccc(-c2ccc3[nH]cc(-c4cncc(O[C@@H]5CCCNC5)n4)c3c2)cc1OC | > 15.8 µM
13. O=c1cc(-c2n[nH]c3ccc(-c4c(F)cccc4F)cc23)nc(N[C@@H]2CCCNC2)[nH]1 | > 10 µM
14. CC(C)Nc1nc(-c2n[nH]c3ccc(-c4c(F)cccc4F)cc23)cc(=O)[nH]1 | > 31.6 µM
15. CC(C)NC(=O)c1ccc(F)c(-c2ccc3[nH]nc(-c4cncc(N[C@@H]5CCCNC5)n4)c3c2)c1 | 4.15 µM
16. c1cc2[nH]nc(-c3cncc(O[C@H]4CNCCC45CC5)n3)c2cc1N1CCOCC1 | 8.65 µM
17. CN1CCOc2cc(-c3ccc4[nH]cc(-c5cncc(O[C@@H]6CCCNC6)n5)c4c3)ccc21 | 9.69 µM
18. COC(=O)c1ccc2[nH]nc(-c3cncc(O[C@@H]4CCCNC4)n3)c2c1 | 31.6 µM
19. c1cc2[nH]cc(-c3cncc(O[C@@H]4CCCNC4)n3)c2cc1-c1cnc2c(c1)CCCN2 | > 31.6 µM
20. CC(C)Nc1cncc(-c2n[nH]c3ccc(-c4cncc(C5CC5)n4)cc23)n1 | 1.77 µM
21. CC1(C)CNCCC1Oc1cncc(-c2n[nH]c3ccc(-c4c(F)cccc4F)cc23)n1 (single isomer, unassigned) [Example 432] | > 31.6 µM
22. c1cc(-c2ccc3[nH]nc(-c4cncc(O[C@@H]5CCCNC5)n4)c3c2)nc(C2CC2)n1 | > 31.6 µM
23. CC(C)Oc1cncc(-c2n[nH]c3ccc(-c4cncc(C5CC5)n4)cc23)n1 | > 31.6 µM
24. CC(=O)Nc1ccc(-c2ccc3[nH]cc(-c4cncc(O[C@@H]5CCCNC5)n4)c3c2)cc1 | 8.06 µM
25. c1cc2[nH]cc(-c3cncc(O[C@@H]4CCCNC4)n3)c2cc1-c1cnn(C2CC2)c1 | 11.8 µM
26. COc1ccc(-c2ccc3[nH]cc(-c4cncc(O[C@@H]5CCCNC5)n4)c3c2)cc1F | ≥ 35.2 µM
27. NC1CCN(c2nc(-c3c[nH]c4ccc(-c5c(F)cccc5F)cc34)cc(=O)[nH]2)CC1 | > 31.6 µM
28. c1cc(N2CCOCC2)ccc1-c1ccc2[nH]cc(-c3cncc(O[C@@H]4CCCNC4)n3)c2c1 | 17 µM
29. O=c1cc(-c2c[nH]c3ccc(-c4c(F)cccc4F)cc23)nc(N[C@@H]2CCCNC2)[nH]1 | > 31.6 µM
30. c1cc(-c2ccc3[nH]nc(-c4cncc(O[C@@H]5CCCNC5)n4)c3c2)nc(NC2CC2)n1 | 31.5 µM
31. CC(C)(O)CNc1cncc(-c2n[nH]c3ccc(-c4cncc(C5CC5)n4)cc23)n1 | > 10 µM
